compounds and their reported EC50
tested on: MEF2 transcriptional activity; assay: MEF2 transcriptional activity screen (Luciferase-MEF2 reporter in human neural progenitor cells); format: cell-based; settings: Homo sapiens; concentration for half-maximal activity derived from the hill equation model; MEF2 luciferase reporter; read-out: qAC50
Structures can show the parent of a compound that is named as a salt.
experimental-readout: EC50

- compound: "CCN(CC)Cc1ccc2cc(COC(=O)Nc3ccc(C(=O)NO)cc3)ccc2c1 [Givinostat hydrochloride]"
  reading: "972 nM"
- compound: "Cc1sc2c(c1C)C(c1ccc(Cl)cc1)=N[C@@H](CC(=O)Nc1ccc(O)cc1)c1nnc(C)n1-2"
  reading: "450 nM"
- compound: "C=C(C)[C@]12C[C@@H](C)[C@@]34O[C@](Cc5ccccc5)(O[C@@H]1[C@@H]3C=C(COC(=O)Cc1ccc(O)c(OC)c1)C[C@]1(O)C(=O)C(C)=C[C@@H]41)O2"
  reading: "5.11 nM"
- compound: "CC[C@@H]1C(=O)N(C)c2cnc(Nc3ccc(C(=O)NC4CCN(C)CC4)cc3OC)nc2N1C1CCCC1"
  reading: "209 nM"
- compound: "CCN(CC)CCNc1ccc(CNC)c2sc3ccccc3c(=O)c12"
  reading: "> 19900 nM"
- compound: "CN(C)CCCNC(=O)/C(=C/CCCCC(=O)NO)COc1cccc2ccccc12"
  reading: "214 nM"
- compound: "C/C(=N\\NC(=O)c1ccc(C(=O)O)s1)c1csc(-c2ccc(Cl)c(Cl)c2)c1O"
  reading: "2570 nM"
- compound: "CNS(=O)(=O)Nc1nccc(Cc2c(C)c3ccc(Oc4ncccn4)cc3oc2=O)c1F"
  reading: "39.1 nM"
- compound: "O=c1cc(-c2ccc(O)cc2)oc2cc(O)cc(O)c12"
  reading: "4690 nM"
- compound: "COc1ccc2nc(-c3cccc(F)c3)cc(O)c2c1OP(=O)(OCc1ccccc1)OCc1ccccc1"
  reading: "10000 nM"

----------
compounds and their reported pEC50
tested on: MEF2 transcriptional activity; experiment: MEF2 transcriptional activity screen (Luciferase-MEF2 reporter in human neural progenitor cells); type: cell-based; settings: Homo sapiens; concentration for half-maximal activity derived from the hill equation model; MEF2 luciferase reporter; read-out: qAC50
pEC50: −log10 of the molar value.
experimental-readout: pEC50

- compound: "C#Cc1cccc(Nc2ncnc3cc(OC)c(OCCCCCCC(=O)NO)cc23)c1"
  experimental-readout: "pEC50"
  value-prefix: "="
  reading: 5.98
- compound: "O=C(NOCC1CC1)c1ccc(F)c(F)c1Nc1ccc(I)cc1Cl"
  experimental-readout: "pEC50"
  value-prefix: "="
  reading: 6.07
- compound: "Cc1[nH]c2ccccc2c1CCNCc1ccc(/C=C/C(=O)NO)cc1 [Panobinostat lactate]"
  experimental-readout: "pEC50"
  value-prefix: "="
  reading: 7.91
- compound: "CCCCc1nc2cc(/C=C/C(=O)NO)ccc2n1CCN(CC)CC"
  experimental-readout: "pEC50"
  value-prefix: "="
  reading: 6.68
- compound: "COc1cc(F)c(F)c(Nc2ccc(I)cc2F)c1NS(=O)(=O)C1(C[C@H](O)CO)CC1"
  experimental-readout: "pEC50"
  value-prefix: "="
  reading: 5.56
- compound: "Cn1cc(CNCC2CCN(c3ncc(C(=O)NO)cn3)CC2)c2ccccc21"
  experimental-readout: "pEC50"
  value-prefix: "="
  reading: 7.04
- compound: "COc1cccc(-c2ccc(NC(=O)C3=C(C(=O)O)CCC3)c(F)c2)c1"
  experimental-readout: "pEC50"
  value-prefix: "<"
  reading: 4.70
- compound: "CCCCCCC(C)(C)c1cc(O)c2c(c1)OC(C)(C)[C@H]1CC=C(CO)C[C@H]21"
  experimental-readout: "pEC50"
  value-prefix: "="
  reading: 5.10
- compound: "COc1ccc(C(=O)/C(Br)=C/C(=O)O)cc1 [Bromebrate sodium]"
  experimental-readout: "pEC50"
  value-prefix: "<"
  reading: 4.70
- compound: "CSCCOC(=O)C1=C(C)NC(C)=C(C(=O)OCCSC)C1c1ccccc1[N+](=O)[O-]"
  experimental-readout: "pEC50"
  value-prefix: "="
  reading: 5.68
- compound: "CC(C)c1ccc(CN2CCN(C(c3ccc(F)cc3)c3ccc(F)cc3)CC2)c(=O)c(NCCO)c1"
  experimental-readout: "pEC50"
  value-prefix: "<"
  reading: 4.70
- compound: "COC(=O)C1=C(C)NC(C)=C(C(=O)OC(C)C)C1c1ccccc1[N+](=O)[O-] (centres unmarked)"
  experimental-readout: "pEC50"
  value-prefix: "="
  reading: 5.81
- compound: "CCCc1cc(O)c2c(c1)OC(C)(C)[C@@H]1CCC(C)=C[C@@H]21 [DELTA-9-TETRA-[…]]"
  experimental-readout: "pEC50"
  value-prefix: "="
  reading: 5.64
- compound: "CC(C)OC(=O)CCC/C=C\\C[C@H]1C(=O)C=C[C@@H]1/C=C/[C@@H](O)CCc1ccccc1"
  experimental-readout: "pEC50"
  value-prefix: "<"
  reading: 5.30
- compound: "COc1cc2c(cc1O)C[C@H]1c3c(cc(O)c(OC)c3-2)CCN1C"
  experimental-readout: "pEC50"
  value-prefix: "="
  reading: 4.88
- compound: "O=C(CCCCCCC(=O)Nc1cccnc1)NO [pyroxamide]"
  experimental-readout: "pEC50"
  value-prefix: "<"
  reading: 4.70
- compound: "C[C@H](NC(=O)C(=O)Nc1ccccc1C(C)(C)C)C(=O)N[C@@H](CC(=O)O)C(=O)COc1c(F)c(F)cc(F)c1F"
  experimental-readout: "pEC50"
  value-prefix: "="
  reading: 5.06
- compound: "N/C(=N\\Nc1ccccc1)c1ccccc1"
  experimental-readout: "pEC50"
  value-prefix: "<"
  reading: 4.70
- compound: "O=C(/C=C/c1cccc(S(=O)(=O)Nc2ccccc2)c1)NO"
  experimental-readout: "pEC50"
  value-prefix: "="
  reading: 6.17
- compound: "Nc1c2ccccc2nc2ccccc12"
  experimental-readout: "pEC50"
  value-prefix: "="
  reading: 4.72
- compound: "O=C(NO)c1ccc(C2=Nc3ccccc3Oc3ccccc32)cc1"
  experimental-readout: "pEC50"
  value-prefix: "="
  reading: 5.52
- compound: "Cn1cc(-c2ccc(S(=O)(=O)n3ccc(/C=C/C(=O)Nc4ccccc4N)c3)cc2)cn1"
  experimental-readout: "pEC50"
  value-prefix: "="
  reading: 4.76
- compound: "CN(C)CCNC(=O)c1cccc2cc3ccccc3nc12"
  experimental-readout: "pEC50"
  value-prefix: "<"
  reading: 4.70
- compound: "O=c1oc(CCN2CCN(c3ccccc3)CC2)c(-c2ccc(Cl)cc2)o1"
  experimental-readout: "pEC50"
  value-prefix: "<"
  reading: 4.70
- compound: "Nc1ccccc1NC(=O)c1ccc(CNC(=O)OCc2cccnc2)cc1"
  experimental-readout: "pEC50"
  value-prefix: "="
  reading: 6.83
- compound: "CC(=O)C(=Cc1ccccc1)C(C)=O"
  experimental-readout: "pEC50"
  value-prefix: "="
  reading: 4.80
